Values were extracted from patent US20170058314A1.

Residual viable cells (SYBR Green I/PI assay) values, listed per item
Tested on: stationary phase B. burgdorferi persisters (strain B31)
Assay: NCI compound library screen, SYBR Green I/PI assay (plate reader)
Conditions: 50 μM, seven day old stationary phase culture, 7 days

Worked cases, answers included:
MOLECULE	RESULT
C[C@H]1c2cccc(O)c2C(=O)C2=C(O)[C@]3(O)C(=O)C(C(N)=O)=C(O)[C@@H](N(C)C)[C@@H]3[C@@H](O)[C@@H]21 [Doxycycline]	68%
CC[C@@]1(O)C[C@H](O[C@H]2C[C@H](N(C)C)[C@H](O)[C@H](C)O2)c2c(cc3c(c2O)C(=O)c2c(O)ccc(O)c2C3=O)[C@H]1C(=O)OC [NSC267229, Pyrromycin]	0%

Now take the following molecule into account.
Query: Request body: readout Residual viable cells (SYBR Green I/PI assay), system stationary phase B. burgdorferi persisters (strain B31), query CC1(C)S[C@@H]2[C@H](NC(=O)[C@H](N)c3ccc(O)cc3)C(=O)N2[C@H]1C(=O)O [Amoxicillin] . Return the value.
Response: 71%

====

Test system: stationary phase B. burgdorferi persisters (strain B31)
Assay: SYBR Green I/PI viability assay (plate reader), FDA-approved drug library screen
Conditions: Borreliella burgdorferi, 168 h, read-out: Residual viable cells (regression equation, SYBR Green I/PI assay)
READOUT_NAME: viability at 50 µM (%)
Your answer should be a plain number; it is taken to be in %.

Query: Fill blank: measured viability at 50 µM of the compound CN(C)[C@@H]1C(O)=C(C(N)=O)C(=O)[C@@]2(O)C(O)=C3C(=O)c4c(O)cccc4[C@@](C)(O)[C@H]3C[C@@H]12 is ____.
Response: 50

Query: // next record CN(C)c1cc(NC(=O)CNC(C)(C)C)c(O)c2c1C[C@H]1C[C@H]3[C@H](N(C)C)C(O)=C(C(N)=O)C(=O)[C@@]3(O)C(O)=C1C2=O
Response: 51

Query: Another compound to look at: COc1cnc(NS(=O)(=O)c2ccc(N)cc2)nc1
Response: 54

====

Tested on: stationary phase B. burgdorferi persisters (strain B31)
Test: SYBR Green I/PI viability assay (plate reader), FDA-approved drug library screen
Settings: Borreliella burgdorferi, 168 h, read-out: Residual viable cells (regression equation, SYBR Green I/PI assay)
READOUT_NAME: viability at 50 µM (%)
All answers are understood in %, so give the number only.

Please review the entries below; each comes with its answer.
COMPOUND	RESULT_UNIT	NUMERIC_RESULT
C[C@H]1c2cccc(O)c2C(=O)C2=C(O)[C@]3(O)C(=O)C(C(N)=O)=C(O)[C@@H](N(C)C)[C@@H]3[C@@H](O)[C@@H]21 [Doxycycline]	%	67
CO/N=C(\C(=O)N[C@@H]1C(=O)N2C(C(=O)[O-])=C(C[N+]3(C)CCCC3)CS[C@H]12)c1csc(N)n1 [Cefepime]	%	44

The record that follows has no viability at 50 µM shown yet.
Query: So what's the measured viability at 50 µM for this one? CO/N=C(\C(=O)N[C@@H]1C(=O)N2C(C(=O)O)=C(CSc3nc(=O)c(=O)[nH]n3C)CS[C@H]12)c1csc(N)n1 [Ceftriaxone]
Response: 44

====

Reported Residual viable cells (regression equation, SYBR Green I/PI assay) is given for each of the following molecules.
System: stationary phase B. burgdorferi persisters (strain B31)
Assay: SYBR Green I/PI viability assay (plate reader), FDA-approved drug library screen
Settings: 50 μM, 7-day old stationary phase cells treated for 7 days
Please reply with the bare figure in % and do not write the unit itself.

MOLECULE	RESULT_UNIT	NUMERIC_RESULT
CO[C@@H]1[C@@H](O[C@@H]2O[C@H](C)[C@@H](O[C@H]3C[C@@](C)(O)[C@@H](OC(=O)CC(C)C)[C@H](C)O3)[C@H](N(C)C)[C@H]2O)[C@@H](CC=O)C[C@@H](C)C(=O)/C=C/[C@@H]2O[C@@H]2C[C@@H](C)OC(=O)C[C@H]1OC(C)=O [Carbomycin]	%	37
CC1(C)S[C@@H]2[C@H](NC(=O)Cc3ccccc3)C(=O)N2[C@H]1C(=O)O [Penicillin G]	%	68
C[C@@H]1[C@H](O)[C@@H](C)/C=C/C=C/C=C/C=C/C=C/C=C/C=C/[C@H](O[C@@H]2O[C@H](C)[C@@H](O)[C@H](N)[C@@H]2O)C[C@@H]2O[C@](O)(C[C@@H](O)C[C@@H](O)[C@H](O)CC[C@@H](O)C[C@@H](O)CC(=O)O[C@H]1C)C[C@H](O)[C@H]2C(=O)O [Amphotericin B]	%	50

Query: Which measured Residual viable cells (regression equation, SYBR Green I/PI assay) value corresponds to [Bi] [Bismuth] ?
Response: 48

====

Recorded cut-off (averaged proportion of killed cells) for resistant strains for the following compounds
Tested on: S. aureus strains (Newman, USA300, CA-409, CA-127, NY-315)
Assay: Rapid SYBR Green/PI antibiotic susceptibility test
Assay type: cell-based, Staphylococcus aureus
Conditions: 100 μg/mL, 1.5 hours

// worked examples, cut-off (averaged proportion of killed cells) for resistant strains included
O=C(N[C@H](CO)[C@H](O)c1ccc([N+](=O)[O-])cc1)C(Cl)Cl −0.1
NC[C@H]1O[C@H](O[C@H]2[C@H](O)[C@@H](O[C@H]3O[C@H](CO)[C@@H](O)[C@H](N)[C@H]3O)[C@H](N)C[C@@H]2N)[C@H](O)[C@@H](O)[C@@H]1O −0.01
O=C(O)c1cn(C2CC2)c2cc(N3CCNCC3)c(F)cc2c1=O −0.1

We next turn to a different compound, shown below.
Query: Could you tell me which cut-off (averaged proportion of killed cells) for resistant strains is on file for CC[C@H]1OC(=O)[C@H](C)[C@@H](O[C@H]2C[C@@](C)(OC)[C@@H](O)[C@H](C)O2)[C@H](C)[C@@H](O[C@@H]2O[C@H](C)C[C@H](N(C)C)[C@H]2O)[C@](C)(O)C[C@@H](C)C(=O)[C@H](C)[C@@H](O)[C@]1(C)O ?
Response: −0.1

====

System: stationary phase B. burgdorferi persisters (strain B31)
Assay: SYBR Green I/PI viability assay (plate reader), FDA-approved drug library screen
Conditions: 50 μM, 7 days, stationary phase
READOUT_NAME: Ratio of Green/Red fluorescence, Rescreening (second column)
// print number alone

Completed entries (count: 3):
CC1(C)S[C@@H]2[C@H](NC(=O)Cc3ccccc3)C(=O)N2[C@H]1C(=O)O 7.92
CN[C@H](CC(C)C)C(=O)N[C@H]1C(=O)N[C@@H](CC(N)=O)C(=O)N[C@H]2C(=O)N[C@H]3C(=O)N[C@H](C(=O)N[C@H](C(=O)O)c4cc(O)cc(O)c4-c4cc3ccc4O)[C@H](O)c3ccc(c(Cl)c3)Oc3cc2cc(c3O[C@@H]2O[C@H](CO)[C@@H](O)[C@H](O)[C@H]2O[C@H]2C[C@](C)(N)[C@H](O)[C@H](C)O2)Oc2ccc(cc2Cl)[C@H]1O 6.37
CO[C@@H]1[C@@H](O[C@@H]2O[C@H](C)[C@@H](O[C@H]3C[C@@](C)(O)[C@@H](OC(=O)CC(C)C)[C@H](C)O3)[C@H](N(C)C)[C@H]2O)[C@@H](CC=O)C[C@@H](C)C(=O)/C=C/[C@@H]2O[C@@H]2C[C@@H](C)OC(=O)C[C@H]1OC(C)=O 6.32

Kindly review the next compound as well.
Query: Look up Ratio of Green/Red fluorescence, Rescreening (second column): CO/N=C(\C(=O)N[C@@H]1C(=O)N2C(C(=O)O)=C(COC(N)=O)CS[C@H]12)c1ccco1
Response: 6.67

====

Test system: round body form of B. burgdorferi
Assay: SYBR Green I/PI assay on amoxicillin-induced round body form
Settings: 10 μg/mL drugs or combinations, 7 days
Everything with Live cell %, round body form lower than 30% is class 0; everything else, including exactly 30%, is class 1.

Observe how each entry below is paired with its result.
Nc1ccc(S(=O)(=O)Nc2ccc(Cl)nn2)cc1 class 1
CO[C@@]1(NC(=O)CSCC#N)C(=O)N2C(C(=O)O)=C(CSc3nnnn3C)CS[C@@H]21 class 1
C[C@@H]1CC[C@H]2[C@@H](C)C(=O)O[C@@H]3O[C@@]4(C)CC[C@@H]1[C@]32OO4 class 0
C[C@H]1c2cccc(O)c2C(=O)C2=C(O)[C@]3(O)C(=O)C(C(N)=O)=C(O)[C@@H](N(C)C)[C@@H]3[C@@H](O)[C@@H]21 class 1

Query: Could you verify whether the entry CCCCCCCCCC(=O)N[C@@H](Cc1c[nH]c2ccccc12)C(=O)N[C@H](CC(N)=O)C(=O)N[C@@H](CC(=O)O)C(=O)N[C@@H]1C(=O)NCC(=O)N[C@@H](CCCN)C(=O)N[C@@H](CC(=O)O)C(=O)N[C@H](C)C(=O)N[C@@H](CC(=O)O)C(=O)NCC(=O)N[C@H](CO)C(=O)N[C@@H]([C@H](C)CC(=O)O)C(=O)N[C@@H](CC(=O)c2ccccc2N)C(=O)O[C@@H]1C shows Live cell %, round body form of no less than 30%?
Response: class 0

Query: Same question for O=C1CN(/N=C/c2ccc([N+](=O)[O-])o2)C(=O)N1 please.
Response: class 1
